test: Probe fluorescence ratio response to arachidonic acid relative to ADIFAB2; type: binding; conditions: arachidonic acid; response relative to ADIFAB2
Rule: DR/DR AA below 3 gives Met. Equal to or above 3 gives Not met.

{"molecule": "34V, 72A (protein, listed as Rattus norvegicus, PEPTIDE (1)...(131) wild-type rat intestinal fatty acid binding protein) AFDGTWKVDRNENYEKFMEKMGINVVKRKLGAHVNLKLTITQEGNKFTVKESSNFRNIDVVFELGVDFAYSAADGTELTGTWTMEGNKLVGKFKRVDNGKELIAVREISGNELIQTYTYEGVEAKRIFKKE", "assigned category": "Met"}
{"molecule": "34T, 72A (protein, listed as Rattus norvegicus, PEPTIDE (1)...(131) wild-type rat intestinal fatty acid binding protein) AFDGTWKVDRNENYEKFMEKMGINVVKRKLGAHTNLKLTITQEGNKFTVKESSNFRNIDVVFELGVDFAYSAADGTELTGTWTMEGNKLVGKFKRVDNGKELIAVREISGNELIQTYTYEGVEAKRIFKKE", "assigned category": "Met"}
{"molecule": "72T 74I (protein, listed as Rattus norvegicus, PEPTIDE (1)...(131) wild-type rat intestinal fatty acid binding protein) AFDGTWKVDRNENYEKFMEKMGINVVKRKLGAHDNLKLTITQEGNKFTVKESSNFRNIDVVFELGVDFAYSTAIGTELTGTWTMEGNKLVGKFKRVDNGKELIAVREISGNELIQTYTYEGVEAKRIFKKE", "assigned category": "Met"}

Is DR/DR AA of 72S 73Q 74A (protein, listed as Rattus norvegicus, PEPTIDE (1)...(131) wild-type rat intestinal fatty acid binding protein) AFDGTWKVDRNENYEKFMEKMGINVVKRKLGAHDNLKLTITQEGNKFTVKESSNFRNIDVVFELGVDFAYSSQAGTELTGTWTMEGNKLVGKFKRVDNGKELIAVREISGNELIQTYTYEGVEAKRIFKKE strictly below 3?
Met

Is DR/DR AA of 72S 73W 74E (protein, listed as Rattus norvegicus, PEPTIDE (1)...(131) wild-type rat intestinal fatty acid binding protein) AFDGTWKVDRNENYEKFMEKMGINVVKRKLGAHDNLKLTITQEGNKFTVKESSNFRNIDVVFELGVDFAYSSWEGTELTGTWTMEGNKLVGKFKRVDNGKELIAVREISGNELIQTYTYEGVEAKRIFKKE strictly below 3?
Not met

Is DR/DR AA of 21W 78A 102V 72A (protein, listed as Rattus norvegicus, PEPTIDE (1)...(131) wild-type rat intestinal fatty acid binding protein) AFDGTWKVDRNENYEKFMEKWGINVVKRKLGAHDNLKLTITQEGNKFTVKESSNFRNIDVVFELGVDFAYSAADGTEATGTWTMEGNKLVGKFKRVDNGKEVIAVREISGNELIQTYTYEGVEAKRIFKKE strictly below 3?
Not met
